relative viability overview
Test system: LCLC-97TM1
experimentDescription: relative viability (nuclei count vs DMSO), 5 days (fraction); higher = more cells survive
measurementSetup: first compound 0.05 µM
// response body must contain only the number

# compound, relative viability
records = [
    ("Nc1ccn([C@@H]2O[C@H](CO)[C@@H](O)[C@@H]2O)c(=O)n1 [Cytarabine] + Nc1nc2[nH]cc(CCc3ccc(C(=O)N[C@@H](CCC(=O)O)C(=O)O)cc3)c2c(=O)[nH]1 [Pemetrexed] (partner 0.2 µM)", 0.0983),
]

Now let's try a different one.
Exam item: Which relative viability is listed for Nc1ccn([C@@H]2O[C@H](CO)[C@@H](O)[C@@H]2O)c(=O)n1 [Cytarabine] + COc1cccc2cc(-c3nc([C@H]4CC[C@H](C(=O)O)CC4)n4ncnc(N)c34)[nH]c12 [OSI-027] (partner 0.5 µM) ?
Marked response: 0.439

====

relative viability overview
System: LC-2-ad
experimentDescription: relative viability (nuclei count vs DMSO), 5 days (fraction); higher = more cells survive
measurementSetup: first compound 2.53 µM
// response body must contain only the number

# compound, relative viability
measured = [
    ("O=c1[nH]c2ccccc2n1C1CCN(CCCC(c2ccc(F)cc2)c2ccc(F)cc2)CC1 [Pimozide] + C[C@]1(O)C[C@@H](c2nc(-c3ccc4ccc(-c5ccccc5)nc4c3)c3c(N)nccn32)C1 [Linsitinib] (partner 1 µM)", 0.891),
]

Now let's try a different one.
Exam item: Which relative viability is listed for O=c1[nH]c2ccccc2n1C1CCN(CCCC(c2ccc(F)cc2)c2ccc(F)cc2)CC1 [Pimozide] + CS(=O)(=O)CCNCc1ccc(-c2ccc3ncnc(Nc4ccc(OCc5cccc(F)c5)c(Cl)c4)c3c2)o1 [Lapatinib] (partner 2 µM) ?
Marked response: 0.949

====

System: COR-L23
experimentDescription: relative viability (nuclei count vs DMSO), 5 days (fraction); higher = more cells survive
measurementSetup: first compound 0.253 µM
relative viability overview
// response body must contain only the number

# compound, relative viability
data = [
    ("Cc1cnc(-c2cnc(NCCNc3ccc(C#N)cn3)nc2-c2ccc(Cl)cc2Cl)[nH]1 + CC(=O)Nc1cccc(-n2c(=O)n(C3CC3)c(=O)c3c(Nc4ccc(I)cc4F)n(C)c(=O)c(C)c32)c1 [Trametinib] (partner 0.02 µM)", 0.565),
    ("Cc1cnc(-c2cnc(NCCNc3ccc(C#N)cn3)nc2-c2ccc(Cl)cc2Cl)[nH]1 + COc1cc2c(Oc3ccc(NC(=O)C4(C(=O)Nc5ccc(F)cc5)CC4)cc3F)ccnc2cc1OCCCN1CCOCC1 [Foretinib] (partner 0.25 µM)", 0.877),
    ("Cc1cnc(-c2cnc(NCCNc3ccc(C#N)cn3)nc2-c2ccc(Cl)cc2Cl)[nH]1 + Cc1nc(Nc2ncc(C(=O)Nc3c(C)cccc3Cl)s2)cc(N2CCN(CCO)CC2)n1 [Dasatinib] (partner 0.075 µM)", 0.419),
]

Now let's try a different one.
Exam item: Which relative viability is listed for Cc1cnc(-c2cnc(NCCNc3ccc(C#N)cn3)nc2-c2ccc(Cl)cc2Cl)[nH]1 + Cc1nc(NC(=O)N2CCC[C@H]2C(N)=O)sc1-c1ccnc(C(C)(C)C(F)(F)F)c1 [Alpelisib] (partner 2 µM) ?
Marked response: 0.649

====

relative viability overview
System: A-427
experimentDescription: relative viability (nuclei count vs DMSO), 5 days (fraction); higher = more cells survive
measurementSetup: first compound 0.08 µM
// response body must contain only the number

# compound, relative viability
measured = [
    ("O=c1[nH]c2ccccc2n1C1CCN(CCCC(c2ccc(F)cc2)c2ccc(F)cc2)CC1 [Pimozide] + CC(=O)c1c(C)c2cnc(Nc3ccc(N4CCNCC4)cn3)nc2n(C2CCCC2)c1=O [Palbociclib] (partner 0.5 µM)", 0.531),
    ("Cc1cnc(-c2cnc(NCCNc3ccc(C#N)cn3)nc2-c2ccc(Cl)cc2Cl)[nH]1 + C[C@@H](Oc1cc(-c2cnn(C3CCNCC3)c2)cnc1N)c1c(Cl)ccc(F)c1Cl [Crizotinib] (partner 1 µM)", 0.911),
    ("Cc1cnc(-c2cnc(NCCNc3ccc(C#N)cn3)nc2-c2ccc(Cl)cc2Cl)[nH]1 + CC(=O)c1c(C)c2cnc(Nc3ccc(N4CCNCC4)cn3)nc2n(C2CCCC2)c1=O [Palbociclib] (partner 0.5 µM)", 0.537),
]

Now let's try a different one.
Exam item: Lab note: need relative viability with A-427 for entry Cc1cnc(-c2cnc(NCCNc3ccc(C#N)cn3)nc2-c2ccc(Cl)cc2Cl)[nH]1 + CC1(C)CCC(c2ccc(Cl)cc2)=C(CN2CCN(c3ccc(C(=O)NS(=O)(=O)c4ccc(N[C@H](CCN5CCOCC5)CSc5ccccc5)c(S(=O)(=O)C(F)(F)F)c4)cc3)CC2)C1 [Navitoclax] (partner 0.5 µM) , please look it up.
Marked response: 0.939

====

Test system: NCI-H1666
experimentDescription: relative viability (nuclei count vs DMSO), 5 days (fraction); higher = more cells survive
measurementSetup: first compound 15.81 µM
relative viability overview
// response body must contain only the number

# compound, assaySystem, relative viability
data = [
    ("O=C(O)CCCCC(CCSCc1ccccc1)SCc1ccccc1 (stereo not drawn) [CPI-613] + Nc1ncn([C@H]2C[C@H](O)[C@@H](CO)O2)c(=O)n1 [Decitabine] (partner 2 µM)", "NCI-H1666", 0.601),
    ("O=C(O)CCCCC(CCSCc1ccccc1)SCc1ccccc1 (stereo not drawn) [CPI-613] + NC(=O)Nc1cc(-c2cccc(F)c2)sc1C(=O)N[C@H]1CCCNC1 [AZD7762] (partner 0.2 µM)", "NCI-H1666", 0.821),
]

Exam item: Which relative viability is listed for O=C(O)CCCCC(CCSCc1ccccc1)SCc1ccccc1 (stereo not drawn) [CPI-613] + CC(=O)c1c(C)c2cnc(Nc3ccc(N4CCNCC4)cn3)nc2n(C2CCCC2)c1=O [Palbociclib] (partner 0.5 µM) ?
Marked response: 0.577

====

System: NCI-H1755
experimentDescription: relative viability (nuclei count vs DMSO), 5 days (fraction); higher = more cells survive
measurementSetup: first compound 0.01581 µM
Note to self: use condition met only for relative viability readings below 0.4; a reading exactly at 0.4 still gets condition not met.

See these solved cases before continuing.
# compound, category
rows = [
    ("Nc1ccn([C@@H]2O[C@H](CO)[C@@H](O)[C@@H]2O)c(=O)n1 [Cytarabine] + CCNC(=O)c1noc(-c2cc(C(C)C)c(O)cc2O)c1-c1ccc(CN2CCOCC2)cc1 [Luminespib] (partner 0.01 µM)", "condition met"),
    ("Nc1ccn([C@@H]2O[C@H](CO)[C@@H](O)[C@@H]2O)c(=O)n1 [Cytarabine] + O=C(c1cc(Cc2n[nH]c(=O)c3ccccc23)ccc1F)N1CCN(C(=O)C2CC2)CC1 [Olaparib] (partner 8 µM)", "condition not met"),
    ("Nc1ccn([C@@H]2O[C@H](CO)[C@@H](O)[C@@H]2O)c(=O)n1 [Cytarabine] + COc1cc2c(Oc3ccc(NC(=O)C4(C(=O)Nc5ccc(F)cc5)CC4)cc3F)ccnc2cc1OCCCN1CCOCC1 [Foretinib] (partner 0.25 µM)", "condition not met"),
    ("Nc1ccn([C@@H]2O[C@H](CO)[C@@H](O)[C@@H]2O)c(=O)n1 [Cytarabine] + N=C(N)NC(=N)NCCc1ccccc1 [Phenformin] (partner 250 µM)", "condition not met"),
    ("Nc1ccn([C@@H]2O[C@H](CO)[C@@H](O)[C@@H]2O)c(=O)n1 [Cytarabine] + CS(=O)(=O)N1CCN(Cc2cc3nc(-c4cccc5[nH]ncc45)nc(N4CCOCC4)c3s2)CC1 [Pictilisib] (partner 1 µM)", "condition not met"),
]

Exam item: Would you kindly verify if relative viability of COc1cc2nccc(Oc3ccc(NC(=O)Nc4cc(C)on4)c(Cl)c3)c2cc1OC [Tivozanib] + O=C(CCCCCCC(=O)Nc1ccccc1)NO [Vorinostat] (partner 1 µM) is strictly less than 0.4?
Marked response: condition not met

Exam item: Would you kindly verify if relative viability of COc1cc2nccc(Oc3ccc(NC(=O)Nc4cc(C)on4)c(Cl)c3)c2cc1OC [Tivozanib] + Cc1nc(Nc2ncc(C(=O)Nc3c(C)cccc3Cl)s2)cc(N2CCN(CCO)CC2)n1 [Dasatinib] (partner 0.075 µM) is strictly less than 0.4?
Marked response: condition not met

Exam item: Would you kindly verify if relative viability of COc1cc2nccc(Oc3ccc(NC(=O)Nc4cc(C)on4)c(Cl)c3)c2cc1OC [Tivozanib] + CC(=O)Nc1cccc(-n2c(=O)n(C3CC3)c(=O)c3c(Nc4ccc(I)cc4F)n(C)c(=O)c(C)c32)c1 [Trametinib] (partner 0.02 µM) is strictly less than 0.4?
Marked response: condition not met

Exam item: Would you kindly verify if relative viability of Nc1ccn([C@@H]2O[C@H](CO)[C@@H](O)[C@@H]2O)c(=O)n1 [Cytarabine] + Cc1nc(Nc2ncc(C(=O)Nc3c(C)cccc3Cl)s2)cc(N2CCN(CCO)CC2)n1 [Dasatinib] (partner 0.075 µM) is strictly less than 0.4?
Marked response: condition met

Hey, just so you know, these numbers are from the supplement of paper PMC10307832.
